Each recorded value in this set is attributed to paper PMC4336329.

Biological target: human ether-à-go-go-related gene (hERG) potassium channel (human)
Assay: primary screen, population patch clamp on CHO cells stably expressing hERG; higher = less effect of the substance
Hit rate of the full screen: of about 310,000 compounds, about 14,000 (4.5%) showed an effect of 50% or more. The effect is printed as a negative number. Only a selection was taken, and strong results are over-represented in it overall.
Parameter threshold = -40%. Response is t when hERG current change (%, negative = inhibition) at 10uM meets or exceeds it, else f.

COMPOUND: COc1ccc(NC(=O)C23CC4CC(C2)CC(n2cnc(Br)n2)(C4)C3)cc1OC
LABEL: t
//
COMPOUND: O=C(Nc1cccc2ccccc12)C12CC3CC(C1)CC(n1cnc([N+](=O)[O-])n1)(C3)C2
LABEL: f
//
COMPOUND: COC(=O)c1ccc(NC(=O)C23CC4CC(C2)CC(n2cnc(Cl)n2)(C4)C3)cc1
LABEL: t
//
COMPOUND: O=C(c1ccc(Cl)s1)N1CCCC(N2CCN(c3ccc(F)cc3)CC2)C1 (stereo not drawn)
LABEL: f
//
COMPOUND: CCC(C)N(CCNC(=O)CC1Oc2ccccc2NC1=O)C1CCCCC1 (stereo not drawn)
LABEL: f
//
COMPOUND: Cc1ccc(F)cc1NC(=O)C12CC3CC(C1)CC(n1cnc([N+](=O)[O-])n1)(C3)C2
LABEL: f

Ask | Please indicate if the recorded hERG current change (%, negative = inhibition) at 10uM for COc1ccccc1N1CCN(C2CCCN(C(=O)c3cccc(-c4ccco4)c3)C2)CC1 (stereo not drawn) meets or exceeds -40%.
Reply | t

Ask | Please indicate if the recorded hERG current change (%, negative = inhibition) at 10uM for COc1cc(NC(=O)C23CC4CC(C2)CC(n2cnc([N+](=O)[O-])n2)(C4)C3)cc(OC)c1 meets or exceeds -40%.
Reply | f

Ask | Please indicate if the recorded hERG current change (%, negative = inhibition) at 10uM for O=C(Nc1ccccc1)C12CC3CC(C1)CC(n1cnc([N+](=O)[O-])n1)(C3)C2 meets or exceeds -40%.
Reply | f

###

Biological target: human ether-à-go-go-related gene (hERG) potassium channel (human)
Assay: primary screen, population patch clamp on CHO cells stably expressing hERG; higher = less effect of the substance
In all, about 310,000 compounds went through this assay and about 14,000 (4.5%) showed an effect of 50% or more. The effect is printed as a negative number. This is one part of a sample in which strong results are shown more often than they occur.
EXPERIMENTAL READOUT: hERG current change (%, negative = inhibition) at 10uM (%)
Provide only the numeric value, understood in %.

Solved cases below.
COMPOUND: Cc1ccc(CNC(=O)c2cc3c(=O)n4ccccc4nc3n(CC3CCCO3)c2=N)cc1 (centres unmarked)
TARGET ENTITY: human ether-à-go-go-related gene (hERG) potassium channel (human)
SCALE UNIT: %
OBSERVED: -81.3
//
COMPOUND: CC(Nc1nc(-c2ccccc2O)nc2ccccc12)c1ccccc1 (centres unmarked)
TARGET ENTITY: human ether-à-go-go-related gene (hERG) potassium channel (human)
SCALE UNIT: %
OBSERVED: 5.73
//
COMPOUND: Cc1ccc(OCC(=O)Nc2ccc3c(c2)nc(CCN2CCN(C)CC2)n3C)cc1
TARGET ENTITY: human ether-à-go-go-related gene (hERG) potassium channel (human)
SCALE UNIT: %
OBSERVED: -55.6
//
COMPOUND: Cc1ccc(NC(=O)COc2ccc(Br)cc2C)cc1
TARGET ENTITY: human ether-à-go-go-related gene (hERG) potassium channel (human)
SCALE UNIT: %
OBSERVED: 0.803
//
COMPOUND: CC(Nc1nc(-c2ccccc2F)nc2ccccc12)c1ccccc1 (centres unmarked)
TARGET ENTITY: human ether-à-go-go-related gene (hERG) potassium channel (human)
SCALE UNIT: %
OBSERVED: -3.87
//
COMPOUND: O=C(NCc1ccccc1)c1ccc2c(=O)n(CC3CCCO3)c(=S)[nH]c2c1 (centres unmarked)
TARGET ENTITY: human ether-à-go-go-related gene (hERG) potassium channel (human)
SCALE UNIT: %
OBSERVED: -2.39
//
COMPOUND: N=c1c(S(=O)(=O)c2ccc(F)cc2)cc2c(=O)n3ccccc3nc2n1CC1CCCO1 (centres unmarked)
TARGET ENTITY: human ether-à-go-go-related gene (hERG) potassium channel (human)
SCALE UNIT: %
OBSERVED: -40.8
//
COMPOUND: CCOC(=O)c1cc2c(=O)n3ccccc3nc2n(CC2CCCO2)c1=NC(C)=O (centres unmarked)
TARGET ENTITY: human ether-à-go-go-related gene (hERG) potassium channel (human);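 also: peak tail current of the secondary pulse compared with the same well before compound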
SCALE UNIT: %
OBSERVED: -1.13
//
COMPOUND: Clc1ccc(-c2nc(N3CCCCC3)nc3ccccc23)cc1
TARGET ENTITY: human ether-à-go-go-related gene (hERG) potassium channel (human);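 also: peak tail current of the secondary pulse compared with the same well before compound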
SCALE UNIT: %
OBSERVED: 4.29
//
COMPOUND: COc1ccc(OCC(=O)Nc2ccc3c(c2)nc(CCN2CCN(C)CC2)n3C)cc1
TARGET ENTITY: human ether-à-go-go-related gene (hERG) potassium channel (human);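 also: peak tail current of the secondary pulse compared with the same well before compound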
SCALE UNIT: %
OBSERVED: -8.47

Ask | Report hERG current change (%, negative = inhibition) at 10uM for Cn1c(CN2CCCC2)nc2cc(NC(=O)C3CCCCC3)ccc21
Reply | -4.77

Ask | Report hERG current change (%, negative = inhibition) at 10uM for Cn1c(CCN2CCCCC2)nc2cc(NC(=O)NC3CCCCC3)ccc21
Reply | 0.766

Ask | Report hERG current change (%, negative = inhibition) at 10uM for CC(Nc1nc(N2CCNCC2)nc2ccccc12)c1ccccc1 (centres unmarked)
Reply | -66.2

Ask | Report hERG current change (%, negative = inhibition) at 10uM for CC(=O)NCCc1nc2cc(NC(=O)COc3ccc(C)cc3)ccc2n1C
Reply | 14.2

Ask | Report hERG current change (%, negative = inhibition) at 10uM for CC(Nc1nc(-c2ccccc2)nc2ccccc12)c1ccccc1 (centres unmarked)
Reply | 3.47

Ask | Report hERG current change (%, negative = inhibition) at 10uM for COc1ccc(Nc2nc(N3CCN(S(C)(=O)=O)CC3)nc3ccccc23)c(OC)c1
Reply | -22.7

###

Molecular target: human ether-à-go-go-related gene (hERG) potassium channel (human, UniProt Q12809);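 also: peak tail current of the secondary pulse compared with the same well before compound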
Sequence (Q12809 whole entry, looked up): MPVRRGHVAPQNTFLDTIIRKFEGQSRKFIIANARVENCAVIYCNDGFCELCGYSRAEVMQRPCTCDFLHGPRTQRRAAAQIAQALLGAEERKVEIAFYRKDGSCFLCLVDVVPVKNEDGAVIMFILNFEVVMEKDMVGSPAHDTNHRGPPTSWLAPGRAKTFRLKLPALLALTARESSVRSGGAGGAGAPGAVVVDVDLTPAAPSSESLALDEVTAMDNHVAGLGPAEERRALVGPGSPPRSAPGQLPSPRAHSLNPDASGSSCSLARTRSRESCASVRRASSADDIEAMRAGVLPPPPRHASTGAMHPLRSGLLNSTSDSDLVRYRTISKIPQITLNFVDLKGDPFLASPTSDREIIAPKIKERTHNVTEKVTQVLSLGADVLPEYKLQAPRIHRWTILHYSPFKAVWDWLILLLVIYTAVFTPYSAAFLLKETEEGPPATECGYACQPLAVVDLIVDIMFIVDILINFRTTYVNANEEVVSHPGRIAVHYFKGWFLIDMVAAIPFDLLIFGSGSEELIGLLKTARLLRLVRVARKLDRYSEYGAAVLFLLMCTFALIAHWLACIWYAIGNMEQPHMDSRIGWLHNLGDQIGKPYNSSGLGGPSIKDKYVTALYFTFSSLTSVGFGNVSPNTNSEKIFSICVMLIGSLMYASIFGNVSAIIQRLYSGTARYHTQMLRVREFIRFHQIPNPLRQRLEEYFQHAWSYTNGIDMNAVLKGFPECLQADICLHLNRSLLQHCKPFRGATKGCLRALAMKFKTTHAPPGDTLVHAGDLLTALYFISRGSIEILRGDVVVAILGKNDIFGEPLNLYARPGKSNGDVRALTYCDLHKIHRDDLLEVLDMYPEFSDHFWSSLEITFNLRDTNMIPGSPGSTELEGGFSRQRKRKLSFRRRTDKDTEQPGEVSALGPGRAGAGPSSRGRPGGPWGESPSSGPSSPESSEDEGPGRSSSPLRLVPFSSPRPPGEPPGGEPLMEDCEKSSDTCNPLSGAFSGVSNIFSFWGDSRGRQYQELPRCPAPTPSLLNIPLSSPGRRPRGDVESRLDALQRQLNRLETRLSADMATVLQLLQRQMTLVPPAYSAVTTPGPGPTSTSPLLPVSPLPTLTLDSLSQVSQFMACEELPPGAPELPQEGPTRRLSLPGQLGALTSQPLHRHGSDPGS
Assay: primary screen, population patch clamp on CHO cells stably expressing hERG; higher = less effect of the substance
About 14,000 (4.5%) of roughly 310,000 compounds showed an effect of 50% or more. Effects have a minus sign here. The entries come from a sample that favours strong results as a whole.
Listed here are molecules together with their documented hERG current change (%, negative = inhibition) at 10uM.
Provide only the numeric value, understood in %.

Solved cases below.
MOLECULE: CCOC(=O)c1c(NC(=O)Cc2ccccc2)sc2c1CC(C)(C)NC2(C)C
OBSERVED: -52

MOLECULE: CCOC(=O)C1=CC[C@H]2c3c(c4ccccc4n3C)C[C@H]1N2C
OBSERVED: 3.88

MOLECULE: CC[C@]12CCCN3CCc4c(n(c5ccccc45)C(=O)C1)C32 (some centres unmarked)
OBSERVED: -65.7

MOLECULE: O=C1OC2(CCCCC2)OC(=O)C1=CNc1nccs1
OBSERVED: 3.3

MOLECULE: Cc1[nH]c2ccccc2c1C(=O)COC(=O)c1ccc[n+]([O-])c1
OBSERVED: 0.499

MOLECULE: Cc1nnc(SCC(=O)NC2CCCc3ccccc32)n1-c1ccccc1 (centres unmarked)
OBSERVED: -0.602

MOLECULE: CC1=C(C(=O)Nc2ccccc2)C(c2cccs2)NC(=O)N1 (centres unmarked)
OBSERVED: 15.6

MOLECULE: CCOC(=O)c1c(NC(=O)CSc2nnnn2-c2ccccc2)sc2c1CCC(C)C2 (centres unmarked)
OBSERVED: -5.66

Ask | Report hERG current change (%, negative = inhibition) at 10uM for CCOC(=O)c1c(NC(=O)COc2ccccc2OCC)sc2c1CC(C)(C)NC2(C)C
Reply | 13.3

Ask | Report hERG current change (%, negative = inhibition) at 10uM for COC(=O)c1c(NC(=O)Cc2ccccc2)sc2c1CC(C)(C)NC2(C)C
Reply | -11.1

Ask | Report hERG current change (%, negative = inhibition) at 10uM for CCOC(=O)c1c(NC(=O)CSc2ncccn2)sc2c1CC(C)(C)NC2(C)C
Reply | -55.9

Ask | Report hERG current change (%, negative = inhibition) at 10uM for CCOC(=O)c1c(NC(=O)CSc2nc3ccc(C)cc3[nH]2)sc2c1CC(C)(C)NC2(C)C
Reply | -44.3

Ask | Report hERG current change (%, negative = inhibition) at 10uM for CCn1cc(C2N3CC4(C)CN2CC(C)(C3)C4=O)c2ccccc21 (centres unmarked)
Reply | 7.47
